Entries and their SPOT signal as a fraction of Bim BH3's signal on the same receptor and array values follow.
# Target entity: Bcl-xL, Q07817
# Sequence (Q07817 1-209): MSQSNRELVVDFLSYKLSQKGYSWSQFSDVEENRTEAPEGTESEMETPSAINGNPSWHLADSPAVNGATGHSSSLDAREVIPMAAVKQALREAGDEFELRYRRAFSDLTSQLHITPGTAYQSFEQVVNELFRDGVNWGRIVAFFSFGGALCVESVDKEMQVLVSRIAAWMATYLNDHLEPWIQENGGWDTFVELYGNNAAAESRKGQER
# Test method notes: peptide SPOT array, c-Myc-tagged receptor at 1 uM or 100 nM, anti-c-Myc-Cy3
No unit in the answer, only the number.

Solved cases below.
- Binder: "HHSSQEMSSEYREYADSFGKCPGGRN [PCYT2]"
  Numeric result: 0.05
- Binder: "PKKKMTLSEIYQWILDNFPYYREAGS [FOXJ3]"
  Numeric result: 0.15
- Binder: "LFRIRLVCTILDTCGQYFDRGSSKRK [UPF2]"
  Numeric result: 0.24
- Binder: "PSLSKELTSSLAGVLDVSFDSDSQFP [CRTC1]"
  Numeric result: 0.02
- Binder: "IGFFIAFGIAMGKMGDQAKLMVDFFN [SLC1A2]"
  Numeric result: 0.02
- Binder: "MPYMEAVIHEDQRFGDVIPMSLARRV [CYP2A6]"
  Numeric result: 0.07

Now look at this one.
Memo: YIEYLKSSDRLDEAAQRLATVVNDER [XAB2] , reported SPOT signal as a fraction of Bim BH3's signal on the same receptor and array: 0.03
